B1: glmS ribozyme (parent)
chain: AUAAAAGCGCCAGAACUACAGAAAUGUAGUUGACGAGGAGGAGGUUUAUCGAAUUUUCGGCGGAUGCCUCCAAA

- Variants of: B1
- experimentalDetails: self-cleavage kobs at 640 uM GlcN6P; higher = faster cleavage; RNA array
- particulars: with glucosamine-6-phosphate
Variants at the floor of the assay were thinned out.
recordedEndpoint: self-cleavage kobs at 640 uM GlcN6P (s⁻¹)
Write the answer as a number in s⁻¹, unit excluded.

Example entries and their recorded answers appear below.
Query (variant): AUAAAAGCGCCAGAACUACAGAAAUGUAGUUGACGAGGAGGAGGUUUAUAGACUUUGGGGCGGAUGCCUCCAAA ; field requested: self-cleavage kobs at 640 uM GlcN6P
0.000112

Requested read-out: self-cleavage kobs at 640 uM GlcN6P. Entry: AUAAAAGCGCCAGAACUACAGAAAUGUAUUUGACGAGGAGGAGGUUUAUCGAAUUUUAGGCGGAUGCAUCCAAA
0.000121

Further cases:
Suppose we examine the variant AUAAAAGCGCCAGAAAUACAGAAAUGUAUUUGACGAGGAGGAGGUUUAUCGAAUUUUCGGCGGAUGCCUCCAAA ; what self-cleavage kobs at 640 uM GlcN6P value has been reported?
0.00517

Recorded self-cleavage kobs at 640 uM GlcN6P for AUAAAAGCGCCGGAACUACAGAAAUGUAGUUGACGAGGAGGAGGUGUAUCGAAUUUUGGGCGUAUGCCACCAAA , please?
0.000158
